Target: Gamma-secretase
Test: Inhibition of beta amyloid protein 40
Assay type: protein-complex assay, Homo sapiens
REPORTED_PROPERTY: IC50 (µM)

[P] COC(=O)N1CC=CC(=O)C1Cc1ccccc1 (stereo not drawn)
[Q] O=C1C=CCN(C(=O)c2ccccc2)C1Cc1ccccc1 (stereo not drawn)
[R] CO[C@@H]1CCCC(=O)[C@H]1OCc1ccccc1
[S] O=C1C=CC(O)N(C(=O)OCc2ccccc2)C1Cc1ccccc1 (stereo not drawn)
From the records above, write out the order of decreasing IC50. Form entry: labels listed in requested order.
P, R, Q, S
(P: 7.2 µM, R: 4.9 µM, Q: 1 µM, S: 0.5 µM)
